# experimentalSystem: DNA repair protein RAD51 homolog 1 (Homo sapiens)
# assayComment: Inhibition of RAD51 (unknown origin) assessed as inhibition of DNA pairing by measuring D-loop formation between [32P]-ssDNA and homologous supercoiled pUC19 DNA at 10 times RAD52 IC50 incubated for 15 mins by gel electrophoresis method relative to control
Give measured inhibition for each item. Keep answers brief.
One number for each entry, in %.

Consider the worked cases shown below.
> print(dat)
                                        mol  attributemeasured  result
1  Cc1c(C(=O)Nc2ccc(S(=O)(=O)N(C)C3CCN(C)CC3)cc2)oc2c(Cl)cccc12         inhibition    97.5
2  Cn1nc(-c2ccc(Cl)cc2)c2cc(C(=O)NCCCN3CCCC3)sc21         inhibition    35.3
3  CN1CCN(CCCNC(=O)c2cc3c(-c4ccc(Cl)cc4)nn(C)c3s2)CC1         inhibition    38.4

Lab note: each compound below needs its inhibition filled in.
1. Cc1cc(N2CCN(C)CC2)nc2ccc(NC(S)=NCCCN3CCN(C)CC3)cc12
2. COc1ccc(OC)c(Nc2nc(NCCO)c3ccccc3n2)c1

1: 112; 2: 75.1

Please go through the list and note inhibition for each compound.
1. COc1ccccc1Nc1nc(NCCCO)c2ccccc2n1
2. Cn1nc(-c2ccc(Cl)cc2)c2cc(C(=O)NCCCN3CCCCCC3)sc21

[89.7, 48.6]

Could you tell me inhibition for each of these compounds? They are listed below.
1. CCCCN(CC)CCNC(=O)c1cc2c(-c3ccc(Cl)cc3)nn(C)c2s1
2. Cc1ccc(-c2nc(C(=O)NCCCN3CCOCC3)cc3c2[nH]c2ccccc23)cc1
3. COc1ccc(-c2nc(C(=O)NCCCN3CCOCC3)cc3c2[nH]c2ccccc23)cc1OC
4. CCN1CCN(CCCNC(=S)Nc2ccc3nc(N(C)CCN)cc(C)c3c2)CC1

1: 58.6; 2: 73.6; 3: 93.7; 4: 111

---

# experimentalSystem: DNA repair protein RAD51 homolog 1 (Homo sapiens)
# assayComment: Inhibition of RAD51 (unknown origin) assessed as inhibition of DNA pairing by measuring D-loop formation between [32P]-ssDNA and homologous supercoiled pUC19 DNA at 10 times RAD52 IC50 incubated for 15 mins by gel electrophoresis method relative to control
Short version: inhibition at least 90% is Fulfilled, less is Not fulfilled.

Please review the entries below; each comes with its answer.
> print(dat)
                                        mol                        experimentalsystem     classlabel
1    COc1ccc(OC)c(Nc2nc(NCCCO)c3ccccc3n2)c1  DNA repair protein RAD51 homolog 1 (Homo sapiens)  Not fulfilled
2  CCN(CC)CCCN(Cc1cc2cc3c(cc2nc1O)OCO3)C(S)=NCCCN(C)C  DNA repair protein RAD51 homolog 1 (Homo sapiens)      Fulfilled
3  CCCCN(CC)CCCN=C(S)Nc1ccc2nc(N3CCN(C)CC3)cc(C)c2c1  DNA repair protein RAD51 homolog 1 (Homo sapiens)      Fulfilled

Next molecule, please.
I'd appreciate it if you could say whether CCCN(CCC)CCCNC(=S)Nc1ccc2nc(N3CCN(C)CC3)cc(C)c2c1 has inhibition at least equal to 90%.
Fulfilled

Origin of the recorded values: ChEMBL document CHEMBL4417629
